- ASSAYED SYSTEM: δ-opioid receptor (Rattus norvegicus, UniProt P33533)
- Construct: from tissue; host or cells: rat brain P2 synaptosomal membranes (Sprague-Dawley)
- Sequence (P33533 whole entry): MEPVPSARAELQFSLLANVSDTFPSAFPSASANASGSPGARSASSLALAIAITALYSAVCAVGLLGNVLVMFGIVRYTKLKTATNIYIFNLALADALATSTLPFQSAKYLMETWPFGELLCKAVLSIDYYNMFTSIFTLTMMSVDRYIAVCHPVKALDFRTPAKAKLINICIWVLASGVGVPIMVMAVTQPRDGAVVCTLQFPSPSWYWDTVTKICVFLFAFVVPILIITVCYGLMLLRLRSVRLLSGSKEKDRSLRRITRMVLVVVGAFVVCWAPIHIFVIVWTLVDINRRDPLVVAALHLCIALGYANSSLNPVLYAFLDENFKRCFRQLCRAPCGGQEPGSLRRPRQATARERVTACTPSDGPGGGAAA
- PROCEDURE DETAILS: opioid receptor binding competition assay, rat brain P2 synaptosomal membranes (δ)
- ASSAY CONTEXT: Table 3; versus [3H]DPDPE; rat brain synaptosomes; read-out: Ki(δ)
Would you kindly list Ki for each of these molecules?
Numbers only, in µM.

C=CCN[C@@H](Cc1ccc(O)cc1)C(=O)N1CCC[C@H]1C(=O)N[C@@H](Cc1ccccc1)C(=O)N[C@@H](Cc1ccccc1)C(N)=O [Compound 29, [N-allyl]EM-2]	7.36

# context switch: different molecule, same Ki
Field request: Ki | item: C=CCNC(Cc1c(C)cc(O)cc1C)C(=O)NCCCCCCNC(=O)C(Cc1c(C)cc(O)cc1C)NCC=C (centres unmarked) [Compound 33, Bis-[(N-allyl)Dmt-NH]hexyl]
0.0778

###

- ASSAYED SYSTEM: μ-opioid receptor (Rattus norvegicus)
- Construct: from tissue; host or cells: rat brain P2 synaptosomal membranes (Sprague-Dawley)
- Sequence (P33535 whole entry): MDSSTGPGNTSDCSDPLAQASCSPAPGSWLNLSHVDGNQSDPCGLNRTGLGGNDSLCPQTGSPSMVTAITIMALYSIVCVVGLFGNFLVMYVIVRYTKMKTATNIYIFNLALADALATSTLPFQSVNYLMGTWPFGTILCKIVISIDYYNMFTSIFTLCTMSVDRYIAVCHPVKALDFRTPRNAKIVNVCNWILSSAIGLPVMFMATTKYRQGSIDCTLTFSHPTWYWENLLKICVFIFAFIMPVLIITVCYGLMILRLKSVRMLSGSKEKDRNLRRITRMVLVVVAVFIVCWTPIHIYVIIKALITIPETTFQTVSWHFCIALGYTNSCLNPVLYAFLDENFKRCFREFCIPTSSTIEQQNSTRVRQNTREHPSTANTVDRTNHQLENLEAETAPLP
- PROCEDURE DETAILS: opioid receptor binding competition assay, rat brain P2 synaptosomal membranes (μ)
- ASSAY CONTEXT: Table 3; selectivity ratio
Would you kindly list Ki(δ)/Ki(μ) for each of these compounds?

C=CCNC(Cc1c(C)cc(O)cc1C)C(=O)NCCCCCCNC(=O)C(Cc1c(C)cc(O)cc1C)NCC=C (centres unmarked) [Compound 33, Bis-[(N-allyl)Dmt-NH]hexyl]	11
C=CCN(CC=C)[C@@H](Cc1c(C)cc(O)cc1C)C(=O)N1CCC[C@H]1C(=O)N[C@@H](Cc1ccccc1)C(=O)N[C@@H](Cc1ccccc1)C(N)=O [Compound 30, [N,N-(allyl)2Dmt^1]EM-2]	108
C=CCN[C@@H](Cc1ccc(O)cc1)C(=O)N1CCC[C@H]1C(=O)N[C@@H](Cc1ccccc1)C(=O)N[C@@H](Cc1ccccc1)C(N)=O [Compound 29, [N-allyl]EM-2]	57

Dear colleague, could you please provide Ki(δ)/Ki(μ) for the compounds listed below?
1. C=CCN[C@@H](Cc1c(C)cc(O)cc1C)C(=O)NCCCc1[nH]c(=O)c(CCCNC(=O)[C@H](Cc2c(C)cc(O)cc2C)NCC=C)nc1C [Compound 32, Bis-[(N-allyl)Dmt-NH-propyl]pyrazinone]
2. C=CCN(CC=C)[C@@H](Cc1ccc(O)cc1)C(=O)N1CCC[C@H]1C(=O)N[C@@H](Cc1ccccc1)C(=O)N[C@@H](Cc1ccccc1)C(N)=O [Compound 28, [N,N-Diallyl-Tyr^1]EM-2]

[4, 6]

###

Where a name gives a salt, the structure may show the parent alone.
ATTRIBUTE MEASURED: melting point

Worked examples, 4 molecules total:
Cc1cc(O)cc(C)c1CC(N)C(=O)N1Cc2ccccc2CC1C(=O)NCc1[nH]c(=O)c(CNC(=O)C2Cc3ccccc3CN2C(=O)C(N)Cc2c(C)cc(O)cc2C)nc1C (centres unmarked) (as salt: HCl) [Compound 8]	224 to 226 °C (dec.)
Cc1cc(O)cc(C)c1CC(N)C(=O)N1Cc2ccccc2CC1C(=O)NCCCCCCCCCCNC(=O)C1Cc2ccccc2CN1C(=O)C(N)Cc1c(C)cc(O)cc1C (centres unmarked) (as salt: HCl) [Compound 20, 1,10-Bis(Drat-Tic-amino)decane]	205 to 207 °C
Cc1cc(O)cc(C)c1CC(C(=O)N1Cc2ccccc2CC1C(=O)NCCCCCCNC(=O)C1Cc2ccccc2CN1C(=O)C(Cc1c(C)cc(O)cc1C)N(C)C)N(C)C (stereo not drawn) (as salt: HCl) [Compound 21, 1,6-Bis(N,N-Dimethyl-Dmt-Tic-NH)-hexane]	195 to 197 °C
Cc1cc(O)cc(C)c1CC(N)C(=O)N1Cc2ccccc2CC1C(=O)NCCCCNC(=O)C1Cc2ccccc2CN1C(=O)C(N)Cc1c(C)cc(O)cc1C (stereo not drawn) (as salt: HCl) [Compound 18, 1,4-Bis(Dmt-Tic-amino)butane]	215 to 217 °C

Field request: melting point | item: Cc1cc(O)cc(C)c1CC(N)C(=O)N1Cc2ccccc2CC1C(=O)NCCCCCCNC(=O)C1Cc2ccccc2CN1C(=O)C(N)Cc1c(C)cc(O)cc1C (stereo not drawn) (as salt: HCl) [Compound 19, 1,6-Bis(Dmt-Tic-amino)hexane]
215 to 217 °C

###

Would you kindly list Ki(μ)/Ki(δ) for each of these compounds?
- ASSAYED SYSTEM: δ-opioid receptor (Rattus norvegicus)
- Construct: from tissue; host or cells: rat brain P2 synaptosomal membranes (Sprague-Dawley)
- PROCEDURE DETAILS: opioid receptor binding competition assay, rat brain P2 synaptosomal membranes (δ)
- ASSAY CONTEXT: Table 1; selectivity ratio
Give bare numbers.

Cc1cc(O)cc(C)c1CC(C(=O)N1Cc2ccccc2CC1C(=O)NCCCCCCNC(=O)C1Cc2ccccc2CN1C(=O)C(Cc1c(C)cc(O)cc1C)N(C)C)N(C)C (stereo not shown)	37
Cc1cc(O)cc(C)c1CC(N)C(=O)N1Cc2ccccc2CC1C(=O)NCCCCCCCCCCNC(=O)C1Cc2ccccc2CN1C(=O)C(N)Cc1c(C)cc(O)cc1C (stereo not shown)	3
Cc1cc(O)cc(C)c1CC(N)C(=O)N1Cc2ccccc2CC1C(=O)NCCCCNC(=O)C1Cc2ccccc2CN1C(=O)C(N)Cc1c(C)cc(O)cc1C (stereo not shown)	46

# context switch: different compound, same Ki(μ)/Ki(δ)
Field request: Ki(μ)/Ki(δ) | item: Cc1cc(O)cc(C)c1CC(N)C(=O)N1Cc2ccccc2CC1C(=O)NCCc1cnc(CCNC(=O)C2Cc3ccccc3CN2C(=O)C(N)Cc2c(C)cc(O)cc2C)c(=O)[nH]1 (stereo not shown)
30

###

- ASSAYED SYSTEM: μ-opioid receptor (Rattus norvegicus)
- Construct: from tissue; host or cells: rat brain P2 synaptosomal membranes (Sprague-Dawley)
- PROCEDURE DETAILS: opioid receptor binding competition assay, rat brain P2 synaptosomal membranes (μ)
- ASSAY CONTEXT: Table 1; rat brain synaptosomes; footnote b: versus [3H]DPDPE; read-out: Ki(μ)
ATTRIBUTE MEASURED: Ki (nM)
Numbers only, in nM.

Field request: Ki | item: Cc1cc(O)cc(C)c1CC(N)C(=O)N1Cc2ccccc2CC1C(=O)NCCc1cnc(CCNC(=O)C2Cc3ccccc3CN2C(=O)C(N)Cc2c(C)cc(O)cc2C)c(=O)[nH]1 (stereo not shown)
2.83

###

- ASSAYED SYSTEM: μ-opioid receptor (Cavia porcellus)
- Sequence (P97266 whole entry, looked up): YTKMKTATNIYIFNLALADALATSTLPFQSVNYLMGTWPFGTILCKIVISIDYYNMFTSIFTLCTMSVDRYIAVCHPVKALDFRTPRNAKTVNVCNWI
- PROCEDURE DETAILS: guinea pig ileum (GPI) bioassay
- Format: cell-based
- ASSAY CONTEXT: Table 2; inhibition of electrically evoked contraction; read-out: GPI agonist IC50
pIC50: −log10 of the molar value.
ATTRIBUTE MEASURED: pIC50

Field request: pIC50 | item: Cc1cc(O)cc(C)c1CC(N)C(=O)N1Cc2ccccc2CC1C(=O)NCCc1cnc(CCNC(=O)C2Cc3ccccc3CN2C(=O)C(N)Cc2c(C)cc(O)cc2C)c(=O)[nH]1 (stereo not shown)
< 5.00

###

- ASSAYED SYSTEM: δ-opioid receptor (Mus musculus)
- Construct: from tissue; host or cells: isolated mouse vas deferens
- Sequence (P32300 whole entry): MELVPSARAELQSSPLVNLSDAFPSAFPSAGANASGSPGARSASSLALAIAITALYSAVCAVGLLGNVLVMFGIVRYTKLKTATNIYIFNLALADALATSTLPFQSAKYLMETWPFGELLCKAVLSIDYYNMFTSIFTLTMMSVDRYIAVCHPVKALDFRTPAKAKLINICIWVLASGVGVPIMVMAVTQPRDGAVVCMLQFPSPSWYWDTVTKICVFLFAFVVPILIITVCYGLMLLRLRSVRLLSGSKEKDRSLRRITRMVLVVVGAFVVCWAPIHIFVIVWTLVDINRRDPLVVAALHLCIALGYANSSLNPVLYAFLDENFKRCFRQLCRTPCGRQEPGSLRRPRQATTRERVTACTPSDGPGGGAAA
- PROCEDURE DETAILS: mouse vas deferens (MVD) bioassay
- Assay type: cell-based
- ASSAY CONTEXT: Table 4; agonism; read-out: MVD
ATTRIBUTE MEASURED: IC50

C=CCN[C@@H](Cc1c(C)cc(O)cc1C)C(=O)NCCCc1[nH]c(=O)c(CCCNC(=O)[C@H](Cc2c(C)cc(O)cc2C)NCC=C)nc1C [Compound 32, Bis-[(N-allyl)Dmt-NH-propyl]pyrazinone]	> 10 µM

# context switch: different compound, same IC50
Field request: IC50 | item: C=CCNC(Cc1c(C)cc(O)cc1C)C(=O)NCCCCCCNC(=O)C(Cc1c(C)cc(O)cc1C)NCC=C (centres unmarked) [Compound 33, Bis-[(N-allyl)Dmt-NH]hexyl]
> 10 µM

###

Would you kindly list pKi for each of these molecules?
- ASSAYED SYSTEM: δ-opioid receptor (Rattus norvegicus)
- Construct: from tissue; host or cells: rat brain P2 synaptosomal membranes (Sprague-Dawley)
- PROCEDURE DETAILS: opioid receptor binding competition assay, rat brain P2 synaptosomal membranes (δ)
One number for each entry, as −log10 of the molar value.

Worked examples, 3 molecules total:
Cc1cc(O)cc(C)c1CC(C(=O)N1Cc2ccccc2CC1C(=O)NCCCCCCNC(=O)C1Cc2ccccc2CN1C(=O)C(Cc1c(C)cc(O)cc1C)N(C)C)N(C)C (stereo not shown)	10.22
Cc1cc(O)cc(C)c1CC(N)C(=O)N1Cc2ccccc2CC1C(=O)NCCCCNC(=O)C1Cc2ccccc2CN1C(=O)C(N)Cc1c(C)cc(O)cc1C (stereo not shown)	9.91
C=CCN[C@@H](Cc1c(C)cc(O)cc1C)C(=O)NCCCc1[nH]c(=O)c(CCCNC(=O)[C@H](Cc2c(C)cc(O)cc2C)NCC=C)nc1C [Compound 32, Bis-[(N-allyl)Dmt-NH-propyl]pyrazinone]	7.29

Dear colleague, could you please provide pKi for the molecules listed below?
1. Cc1cc(O)cc(C)c1CC(N)C(=O)N1Cc2ccccc2CC1C(=O)NCCCCCCNC(=O)C1Cc2ccccc2CN1C(=O)C(N)Cc1c(C)cc(O)cc1C (stereo not shown)
2. Cc1cc(O)cc(C)c1CC(N)C(=O)N1Cc2ccccc2CC1C(=O)NCCCCCCCCCCNC(=O)C1Cc2ccccc2CN1C(=O)C(N)Cc1c(C)cc(O)cc1C (stereo not shown)
3. Cc1cc(O)cc(C)c1CC(N)C(=O)N1Cc2ccccc2CC1C(=O)NCc1[nH]c(=O)c(CNC(=O)C2Cc3ccccc3CN2C(=O)C(N)Cc2c(C)cc(O)cc2C)nc1C (stereo not shown)
4. C=CCN(CC=C)[C@@H](Cc1ccc(O)cc1)C(=O)N1CCC[C@H]1C(=O)N[C@@H](Cc1ccccc1)C(=O)N[C@@H](Cc1ccccc1)C(N)=O [Compound 28, [N,N-Diallyl-Tyr^1]EM-2]

[9.89, 8.82, 9.79, 5.24]
